Values were extracted from paper PMC3115558.

target: PP1α catalytic subunit (New England BioLabs) (UniProt P62139 1-330); assay: SPR
Sequence (P62139 whole entry): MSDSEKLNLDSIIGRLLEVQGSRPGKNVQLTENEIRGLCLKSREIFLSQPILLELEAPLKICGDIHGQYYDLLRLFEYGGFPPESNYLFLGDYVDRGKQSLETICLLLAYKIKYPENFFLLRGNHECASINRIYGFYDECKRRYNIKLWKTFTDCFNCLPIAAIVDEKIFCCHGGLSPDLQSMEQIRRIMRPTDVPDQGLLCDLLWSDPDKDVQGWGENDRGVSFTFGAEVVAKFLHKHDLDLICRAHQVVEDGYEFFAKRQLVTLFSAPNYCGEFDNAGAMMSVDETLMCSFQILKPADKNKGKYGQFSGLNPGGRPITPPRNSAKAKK
Ends that are not written are not given here.
property: Kd (nM)
Report the figure in nM without appending any unit label.

Prompt line: Provide only the value of recorded Kd for AERQKEKASMLCAKRAKAAAKALKP (also: biotinylated, position not given here) [Biotinylated AKAP79 synthetic peptide, amino acids 25-49, mutant (AxxAxA)]
Response line: 341
